experiment.summary: rescue of L929 cells from zVAD death – primary screen (AID 1377);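 further: 0% = zVAD with DMSO and 100% = DMSO alone without zVAD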
experimental.conditions: L929 zVAD necroptosis rescue, ATP luminescence, 24 h, at 10 µM, stronger effect = higher value; with zVAD 60 µM unless noted
In all, about 220,000 compounds went through this assay and about 830 (0.38%) were called active. Many of the other results were omitted from the sample, so actives are more common in it than they were.
attribute.measured: viability rescue (%)
One number for each entry, in %.

>>> quantitative_result("O=C(Cn1cnc2ccccc2c1=O)Nc1cccc(S(=O)(=O)N2CCCCC2)c1")
2.04

Hey, quick one: what's viability rescue for each of these?
1. COc1cc(NS(=O)(=O)c2ccc(N/C=C(\C=O)c3nc4cc(Cl)ccc4o3)cc2)nc(OC)n1
2. O=C(/C=C/c1cccs1)NCc1cccnc1
3. COc1ccc(Nc2nc(-c3ccccc3)cs2)cc1
4. Cc1ccc(CNC(=O)c2cccnc2Cl)cc1

Result:
1. 0.63
2. 0.04
3. 0.79
4. 0.12
